molecular target: CYP2A7-WT (Homo sapiens, UniProt P20853, D169E/H274R/R311C/V479G); experiment: in vitro; details: pH 7.4
Sequence (P20853 whole entry D169E/H274R/R311C/V479G): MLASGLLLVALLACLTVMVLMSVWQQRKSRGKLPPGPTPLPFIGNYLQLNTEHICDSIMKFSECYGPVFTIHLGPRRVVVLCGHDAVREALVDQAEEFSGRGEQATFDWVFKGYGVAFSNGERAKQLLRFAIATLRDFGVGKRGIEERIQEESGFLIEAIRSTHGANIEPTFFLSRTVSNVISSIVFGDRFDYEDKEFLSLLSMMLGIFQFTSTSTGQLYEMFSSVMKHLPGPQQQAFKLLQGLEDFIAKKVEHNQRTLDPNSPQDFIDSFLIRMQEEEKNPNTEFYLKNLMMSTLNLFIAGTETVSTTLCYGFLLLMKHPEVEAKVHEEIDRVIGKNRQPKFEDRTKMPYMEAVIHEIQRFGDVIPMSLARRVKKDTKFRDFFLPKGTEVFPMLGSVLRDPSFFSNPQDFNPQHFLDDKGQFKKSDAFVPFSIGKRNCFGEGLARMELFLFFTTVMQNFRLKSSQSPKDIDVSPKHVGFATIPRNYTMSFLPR
Experimental Readout: inhibition at 3 h, 10 µM

Find the recorded inhibition at 3 h, 10 µM belonging to c1ccc(Cn2ccnc2)cc1 [1-Benzyl-imidazole] and report it.
80%

----------
Kindly state inhibition at 3 h, 10 µM for each of the entries shown.
target: CYP2A7-WT (Homo sapiens, UniProt P20853, D169E/H274R/R311C/V479G); experiment: in vitro; conditions: pH 7.4, probe Luciferin-H (100 µM)
Your answer is read as %, so omit the unit and give the number.

Find the recorded inhibition at 3 h, 10 µM belonging to CC(=O)N1CCN(c2ccc(OCC3COC(Cn4ccnc4)(c4ccc(Cl)cc4Cl)O3)cc2)CC1 (centres unmarked) and report it.
58

Find the recorded inhibition at 3 h, 10 µM belonging to N#Cc1ccc(C(c2ccc(C#N)cc2)n2cncn2)cc1 and report it.
72

----------
Target: CYP2A6*1 (Homo sapiens)
Sequence (P11509 1-494): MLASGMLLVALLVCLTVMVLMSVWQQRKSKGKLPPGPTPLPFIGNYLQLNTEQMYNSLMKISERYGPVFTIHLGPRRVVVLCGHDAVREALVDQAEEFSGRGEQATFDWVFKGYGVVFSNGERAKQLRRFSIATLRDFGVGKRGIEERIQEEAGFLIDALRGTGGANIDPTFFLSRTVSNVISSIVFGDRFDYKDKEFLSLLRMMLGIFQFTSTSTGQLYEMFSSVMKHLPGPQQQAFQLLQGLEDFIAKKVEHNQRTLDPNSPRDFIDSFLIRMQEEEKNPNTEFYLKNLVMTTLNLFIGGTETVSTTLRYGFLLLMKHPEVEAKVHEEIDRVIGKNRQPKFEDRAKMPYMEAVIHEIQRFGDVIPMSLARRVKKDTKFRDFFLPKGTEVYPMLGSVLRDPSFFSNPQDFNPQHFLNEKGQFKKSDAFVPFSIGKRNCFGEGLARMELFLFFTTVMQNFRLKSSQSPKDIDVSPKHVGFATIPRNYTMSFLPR
Assay: in vitro
Experimental Readout: inhibition at 3 h, 10 µM (%)
Your answer is read as %, so omit the unit and give the number.

Find the recorded inhibition at 3 h, 10 µM belonging to c1ccc(Cn2ccnc2)cc1 and report it.
64
